- EXPERIMENT DESCRIPTION: Stability in presence of subtilisin assessed as intact peptide after 1 hr
- Assay type: ADME
- CONDITION DETAILS: subtilisin (protease solution); read-out: Stability
QUANTITY MEASURED: remaining at 1 h (%)
Numeric answer only, unit % assumed.

Q) Please give the measured remaining at 1 h for this compound: CC(C)C[C@H](NC(=O)CNC(=O)CNC(=O)[C@H](Cc1ccccc1)NC(=O)[C@H](Cc1cnc[nH]1)NC(=O)CNC(=O)[C@@H](NC(=O)[C@@H](NC(=O)[C@H](Cc1ccccc1)NC(=O)[C@H](CCCNC(=N)N)NC(=O)[C@@H](N)CCC(N)=O)C(C)(C)S)[C@@H](C)O)C(=O)N[C@@H](Cc1ccc(O)cc1)C(=O)N1CCC[C@H]1C(=O)N[C@@H](CS)C(=O)N[C@@H](CC(N)=O)C(=O)NCC(=O)N1CCC[C@H]1C(=O)O
A) 5

Q) Please give the measured remaining at 1 h for this compound: C[C@@H](O)[C@H](NC(=O)[C@@H](NC(=O)[C@H](Cc1ccccc1)NC(=O)[C@H](CCCN=C(N)N)NC(=O)[C@@H](N)CCC(N)=O)C(C)(C)S)C(=O)NCC(=O)N[C@@H](Cc1cnc[nH]1)C(=O)N[C@@H](Cc1ccccc1)C(=O)N[C@H](Cc1ccccc1)C(=O)NCC(=O)N1CCC[C@H]1C(=O)N[C@@H](Cc1ccc(O)cc1)C(=O)N1CCC[C@H]1C(=O)N[C@@H](CS)C(=O)N[C@@H](CC(N)=O)C(=O)NCC(=O)N1CCC[C@H]1C(=O)O
A) 5

Q) Please give the measured remaining at 1 h for this compound: CC(C)C[C@@H](C(=O)N[C@@H](Cc1ccc(O)cc1)C(=O)N1CCC[C@H]1C(=O)N[C@@H](CS)C(=O)O)N(C)C(=O)CNC(=O)[C@@H](C)NC(=O)[C@H](Cc1ccccc1)NC(=O)[C@H](Cc1cnc[nH]1)NC(=O)CNC(=O)[C@@H](C)N(C)C(=O)[C@@H](NC(=O)[C@H](Cc1ccccc1)NC(=O)[C@@H](N)CCCNC(=N)N)C(C)(C)S
A) 100
